target: Streptavidin (Streptomyces avidinii) (UniProt P22629); test: streptavidin binders on small-molecule microarray, primary screen, artefact control for SMM compound annotation, biophysical, 635/667 nm fluorescence (AID 1147); conditions: streptavidin binding, higher = more signal;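 note: signal reflects streptavidin binding to arrayed compounds as a control protein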
Sequence (P22629 whole entry, looked up): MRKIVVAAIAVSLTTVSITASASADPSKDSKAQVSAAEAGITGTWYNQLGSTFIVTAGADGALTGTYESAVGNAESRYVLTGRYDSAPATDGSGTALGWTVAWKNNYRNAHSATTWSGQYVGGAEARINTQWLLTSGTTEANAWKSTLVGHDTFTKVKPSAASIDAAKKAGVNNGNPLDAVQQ
Form field: composite z-score (one value per entry).
Give the value as a plain number.

# count of solved cases: 6
molecule	composite z-score
O=C1N(Cc2ccccc2)c2ccccc2[C@@H]2OC(c3ccc(OCCCO)cc3)=N[C@]12CCS(=O)(=O)c1ccccc1	0.209
C=CCC(OC(C)=O)[C@@H]1[C@@H](N(Cc2cc3ccccc3o2)C(=O)c2cccc3ccccc23)c2cc(OCCCO)ccc2N1C(=O)c1ccc(-c2ccccc2)cc1 (some centres not stated)	0.111
COCC(=C=CC[C@@H](O)c1cccc(OCCO)c1)C[C@@H](O)c1ccccn1	-0.229
CCOC(=O)C1=CC[C@@H](c2ccccc2)N(S(=O)(=O)c2ccc(C)cc2)[C@H]1c1ccccc1C	1.05
CN1C(=O)C2C=CC(C(O)c3ccco3)N(Nc3ccccc3)C2C1=O (configuration not stated)	0.437
COCCOC(=O)N1C(=O)[C@@]2(c3cc(C#CCC(C(=O)OC)C(=O)OC)ccc31)[C@H](C(=O)N1CCN(c3ncccn3)CC1)[C@H]1C(=O)O[C@H](c3ccccc3)[C@H](c3ccccc3)N1[C@@H]2c1ccccc1OCCO	0.39

What value of composite z-score has been reported for the following molecule? CC(C)C(=C=CC[C@@H](O)c1ccc(OCCO)cc1)C[C@@H](O)COCc1ccccc1
-0.0104

----------
system: XIP peptide (Xip251-270); assay: small-molecule binders of XIP peptide, primary screen, biochemical, small-molecule microarray, fluorescence 635/667 nm, 0.5 µg/mL protein (AID 1183); settings: small-molecule microarray binding, fluorescence 635 nm; higher = more signal
// false strictly below 0.6 in composite z-score; true otherwise

compound	label-class
O=C1O[C@H](c2ccccc2)[C@H](c2ccccc2)N2[C@H]1[C@@H](C(=O)N1CCCCCCC1)[C@]1(C(=O)Nc3ccc(C#CCCO)cc31)[C@H]2c1ccccc1OCCO	true
OCCCC1=CC(c2cccs2)N(Cc2cc3c(cc2Br)OCO3)CC1 (stereo unspecified)	false
COC(=O)C(CC#Cc1ccc2c(c1)[C@]1(C(=O)N2)[C@H](c2ccc(OCCO)cc2)N2[C@H](c3ccccc3)[C@H](c3ccccc3)OC(=O)[C@H]2[C@@H]1C(=O)N1CCc2cc(OC)c(OC)cc2C1)C(=O)OC	true
[N-]=[N+]=NCc1ccccc1C[C@]1(C(=O)N2CCCCC2)N=C(c2ccc(OCCCO)cc2)O[C@H]1c1ccccc1N=[N+]=[N-]	true

Okay, next one:
# bool: composite z-score of COc1ccc(C(=O)Nc2ccc(CN3C(=O)[C@]4(O[C@H](CCO)[C@@H]([Si](C)(C)c5ccc(OC)cc5)[C@@H]4C)c4ccccc43)cc2)cc1 >= 0.6
true

----------
# z-score annotations
experiment: S. cerevisiae RM11-1a growth modifiers, primary screen, strain RM11-1a, OD600, basal, 24 h (AID 1177); settings: OD600, 24 h, higher = more signal, called active from +8 up or from −8 down;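 note: cultures grown under basal conditions with no added stressor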
Calls of active or inactive are those of the source.

I have this compound here, C=CCC(OC(C)=O)[C@@H]1[C@@H](N(Cc2ccc(-c3ccccc3)cc2)C(=O)c2cccc3ccccc23)c2cc(OCCCO)ccc2N1C(=O)c1ccc(-c2ccccc2)cc1 (some centres undefined) , and I need its recorded z-score.
-0.768 (inactive)

# z-score lookup, item C=CCC(OC(C)=O)[C@@H]1[C@@H](N(Cc2cc3ccccc3o2)C(=O)c2cccc3ccccc23)c2cc(OCCCO)ccc2N1C(=O)c1ccc(-c2ccccc2)cc1 (some centres undefined)
-0.208 (inactive)

Suppose we examine the compound C=C(C)[C@@H]1CC=C(C(O)C2C=CC3C(=O)N(C)C(=O)C3N2Nc2ccccc2)CC1 (some centres undefined) ; what z-score value has been reported?
1.45 (inactive)

Item CN1C(=O)C2C=CC(C(O)c3ccc([N+](=O)[O-])cc3)N(N3CCCCC3)C2C1=O (centres undefined) has what recorded z-score?
0.189 (inactive)
